These measurements were taken from paper PMC10563079.

Molecular target: T1, truncated version of PHGDH (sPHGDH, 1-307) (human, UniProt O43175 1-307, labelled with Monolith NT.115 Protein Labeling Kit RED-NHS (in the MST assay only))
T1 construct: human phosphoglycerate dehydrogenase (PHGDH), catalytic unit, residues 1-307; Exists predominantly as a homo-dimer with a small fraction of monomer; also called catalytic unit of PHGDH; source: recombinant
T1 sequence (looked up): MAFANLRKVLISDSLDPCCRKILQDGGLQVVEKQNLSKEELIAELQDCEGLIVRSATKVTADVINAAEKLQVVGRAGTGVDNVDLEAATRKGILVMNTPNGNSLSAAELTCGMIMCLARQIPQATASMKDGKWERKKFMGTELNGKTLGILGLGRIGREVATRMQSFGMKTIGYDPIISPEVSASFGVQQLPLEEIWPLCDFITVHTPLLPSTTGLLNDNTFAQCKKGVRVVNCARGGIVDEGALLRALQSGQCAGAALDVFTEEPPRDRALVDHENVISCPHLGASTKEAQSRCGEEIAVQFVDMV
Assay: MST; sPHGDH labelled with RED-NHS, 20 nM final; peptides in 16 points, 1:2 dilutions from 0.5 mM; 50 mM HEPES pH 7.5, 1 mM EDTA, 10 mM MgCl2, 100 mM NaCl, 0.005% Tween 20; incubated 16 h at room temperature; 1:1 binding mode; apparent
Conditions: both partners purified
Bridge positions count the residues as written; N and C are the ends. Ends that are not written are not given here.
Reported Kd by item:
Just the number please, in µM, no unit attached.

Specify reported Kd for the binder shown: CTPQATLSMKDGKWEEKKC (disulfide 1-19; not fully specified (N-terminus); printed as C_1_TPQA TLSMK DGKWE EKKC_19_, cyc1-1 with A7L and R16E (peptide numbering); designed from the dimerization loop of human PHGDH; source: synthetic peptide (GL Biochem, Shanghai; Fmoc solid-phase synthesis, HPLC purified)) [cyclic peptide cyc1-2] 11.4

Specify reported Kd for the binder shown: CTPDATLSMKDGKWEEKKC (disulfide 1-19; not fully specified (N-terminus); printed as C_1_TPDA TLSMK DGKWE EKKC_19_, cyc1-2 with Q4D (peptide numbering); designed from the dimerization loop of human PHGDH; source: synthetic peptide (GL Biochem, Shanghai; Fmoc solid-phase synthesis, HPLC purified)) [cyclic peptide cyc1-6] 24.8

Specify reported Kd for the binder shown: CTPQATLTMKNGSWEEKKC (disulfide 1-19; not fully specified (N-terminus); printed as C_1_TPQA TLTMK NGSWE EKKC_19_, A7L and S8T combined with D11N, K13S, native E15 kept, E16 (peptide numbering); designed from the dimerization loop of human PHGDH; source: synthetic peptide (GL Biochem, Shanghai; Fmoc solid-phase synthesis, HPLC purified)) [cyclic peptide cyc1-11] 23.1

Specify reported Kd for the binder shown: CTPQATASMKNGSWQEKKC (disulfide 1-19; not fully specified (N-terminus); printed as C_1_TPQA TASMK NGSWQ EKKC_19_, the text names D11N, K13S and E15Q; designed from the dimerization loop of human PHGDH; source: synthetic peptide (GL Biochem, Shanghai; Fmoc solid-phase synthesis, HPLC purified)) [cyclic peptide cyc1-9] 9.8

Specify reported Kd for the binder shown: Ac-CTPQATACMKDGKWCRKKC (disulfide 1-19, 8-15, cyc1-1 with an added intramolecular disulfide C8-C15 (S8C, E15C); designed from the dimerization loop of human PHGDH; source: synthetic peptide (GL Biochem, Shanghai; Fmoc solid-phase synthesis, stepwise disulfide formation, HPLC purified)) [double constrained cyclic peptide cyc2-1] 3.3
